Entry source: patent US20210139453A1

As shown below, each of these molecules has a reported insect mortality rate against Mythimna separata value.
- Test system: Mythimna separata
- experiment-notes: Efficacy test against Mythimna separata (artificial feed mixed with emulsion)
- condition-parameters: in vivo
API: value field is a number in %; no unit string.

INSERT INTO measurements (molecule, obs_value) VALUES
  ('O=S(=O)(Nc1cc(C(F)(F)F)ccc1-c1nc(-c2ccc(Cl)cc2)no1)C(F)(F)F [Compound 2-25]', 100),
  ('CCS(=O)(=O)Nc1cc(C(F)(F)F)ccc1-n1cnc(-c2ccc(Br)cc2)n1 [Compound 2-17]', 100),
  ('Cc1c(Br)c(C(F)(F)F)nn1-c1ncc(C(F)(F)F)cc1NS(=O)(=O)C(F)(F)F [Compound 3-46]', 100),
  ('O=S(=O)(Nc1cc(C(F)(F)F)ccc1-c1nc2cc(C(F)(F)F)ccc2[nH]1)C(F)(F)F [Compound 2-6]', 100);

// next item, insect mortality rate against Mythimna separata requested
**Q:** Value lookup for insect mortality rate against Mythimna separata; key = O=S(=O)(Nc1cc(C(F)(F)F)ccc1-c1nc2cc(F)c(F)cc2[nH]1)C(F)(F)F [Compound 2-8]
**A:** 100

###

As shown below, each of these molecules has a reported insect mortality rate against Mythimna separata value.
- System: Mythimna separata
- experiment-notes: Efficacy test against Mythimna separata (artificial feed mixed with emulsion)
- condition-parameters: in vivo
API: value field is a number in %; no unit string.

// known answers, use as guide
INSERT INTO assay_data (record_smiles, obs_value) VALUES
  ('O=S(=O)(Nc1cc(C(F)(F)F)ccc1-n1cnc(-c2ccc(Br)cc2)n1)C(F)(F)F', 100),
  ('O=S(=O)(Nc1cc(C(F)(F)F)ccc1-n1ccc(-c2ccc(C(F)(F)F)cc2)n1)C(F)(F)F', 100),
  ('O=S(=O)(Nc1cc(C(F)(F)F)ccc1-n1ccc(-c2ccc(Cl)cc2)n1)C(F)(F)F', 100);

**Q:** Param readout = insect mortality rate against Mythimna separata; param system = Mythimna separata; param query = CCS(=O)(=O)Nc1cc(C(F)(F)F)ccc1-c1nc2cc(F)c(F)cc2[nH]1 ; response: value
**A:** 100

**Q:** Then what about the molecule O=S(=O)(Nc1cc(C(F)(F)F)cnc1-c1cccc(C(F)(F)F)n1)C(F)(F)F ?
**A:** 100

**Q:** Then what about the molecule O=S(=O)(Nc1cc(C(F)(F)F)ccc1-c1ccc(C(F)(F)F)cn1)C(F)(F)F ?
**A:** 100

**Q:** Then what about the molecule O=S(=O)(N(c1cc(C(F)(F)F)ccc1-c1nc2cc(C(F)(F)F)ccc2[nH]1)S(=O)(=O)C(F)(F)F)C(F)(F)F ?
**A:** 100
